System: mouse apolipoprotein B mRNA
Test: Inhibition of mouse apolipoprotein B mRNA levels in primary hepatocytes, quantitative real-time PCR
Format: cell-based
Design: concentration or dose not given beside the values
Conditions: averages from two experiments
Oligonucleotides are written 5' to 3', each unit as a sugar letter and its base; * is a phosphorothioate linkage, no mark a phosphodiester; rarer units and linkages stand in square brackets, end groups in braces. Plain capitals give the bases only. e = 2'-O-(2-methoxyethyl) (MOE); [5mC] = 5-methylcytosine; d = 2'-deoxy (DNA)
This listing pairs substances with measured %INHIB of mouse apolipoprotein B mRNA levels.
Number only, in %; omit the unit.

Look over these answered cases.
// query Recorded %INHIB of mouse apolipoprotein B mRNA levels for 147771 (antisense eG*eG*eT*eA*eA*dA*dG*dT*dT*dG*d[5mC]*d[5mC]*d[5mC]*dA*dT*eG*eG*e[5mC]*eT*eG) [compound 147771] , please?
// result 68

// query What %INHIB of mouse apolipoprotein B mRNA levels value was documented for this substance, 147503 (antisense eA*eA*eT*eG*eG*dA*dT*dG*dA*dT*dG*dA*dA*dA*d[5mC]*eA*eG*eT*eG*eG) [compound 147503] ?
// result 26

// query Using the record for 147488 (antisense eA*eG*e[5mC]*eT*eT*dG*d[5mC]*dT*dT*dG*dT*dT*dG*dG*dG*e[5mC]*eA*e[5mC]*eG*eG) [compound 147488] , report its %INHIB of mouse apolipoprotein B mRNA levels.
// result 72

// query Any idea what %INHIB of mouse apolipoprotein B mRNA levels was measured for 147506 (antisense eA*eG*eG*eA*eA*dG*dG*dA*dA*d[5mC]*dT*d[5mC]*dT*dT*dG*eA*eT*eA*eT*eT) [compound 147506] ?
// result 58

// query State the recorded %INHIB of mouse apolipoprotein B mRNA levels for this entry: 147759 (antisense eA*eG*eG*eT*eG*dA*dG*dG*dA*dA*dG*dT*dT*dG*dG*eA*eA*eT*eT*e[5mC]) [compound 147759]
// result 19

***
// query Bench note: what %INHIB of mouse apolipoprotein B mRNA levels did 147493 (antisense eG*e[5mC]*eT*eT*e[5mC]*dA*dT*dT*dA*dT*dA*dG*dG*dA*dG*eG*eT*eG*eG*eT) [compound 147493] show?
// result 41

---

Overview of recorded %INHIB of human apolipoprotein B mRNA levels for various substances
Test system: human apolipoprotein B mRNA
Test: Inhibition of human apolipoprotein B mRNA levels in HepG2 cells, quantitative real-time PCR
Assay type: cell-based
Design: concentration or dose not given beside the values
Conditions: averages from two experiments
Method: The human hepatoblastoma cell line HepG2 was obtained from the American Type Culture Collection (Manassas, Va.). […] Quantitation of apolipoprotein B mRNA levels was determined by real-time quantitative PCR using the ABI PRISM™ 7700 Sequence Detection System (PE-Applied Biosystems, Foster City, Calif.) according to manufacturer's instructions. […]
Oligonucleotides are written 5' to 3', each unit as a sugar letter and its base; * is a phosphorothioate linkage, no mark a phosphodiester; rarer units and linkages stand in square brackets, end groups in braces. Plain capitals give the bases only. e = 2'-O-(2-methoxyethyl) (MOE); [5mC] = 5-methylcytosine; d = 2'-deoxy (DNA)
In your response, the unit should come after the numeric value.

// query Looking for the measured %INHIB of human apolipoprotein B mRNA levels of 147784 (antisense e[5mC]*eA*eG*e[5mC]*eG*d[5mC]*d[5mC]*dA*dG*d[5mC]*dA*dG*d[5mC]*dG*d[5mC]*e[5mC]*eA*eG*e[5mC]*eA) [compound 147784] , can you help?
// result 70%

// query Fill in: %INHIB of human apolipoprotein B mRNA levels of 147827 (antisense e[5mC]*eT*eA*eA*eT*dG*dG*d[5mC]*d[5mC]*d[5mC]*d[5mC]*dT*dT*dG*dA*eT*eA*eA*eA*e[5mC]) [compound 147827] is ___
// result 13%

// query Suppose we examine the substance 147828 (antisense eA*e[5mC]*eG*eT*eT*dA*dT*d[5mC]*d[5mC]*dT*dT*dG*dA*dG*dT*e[5mC]*e[5mC]*e[5mC]*eT*eG) [compound 147828] ; what %INHIB of human apolipoprotein B mRNA levels value has been reported?
// result 12%

// query Need %INHIB of human apolipoprotein B mRNA levels, item 147815 (antisense eT*eG*eG*e[5mC]*e[5mC]*dT*dA*d[5mC]*d[5mC]*dA*dG*dA*dG*dA*d[5mC]*eA*eG*eG*eT*eA) [compound 147815]
// result 45%

// query Any idea what its %INHIB of human apolipoprotein B mRNA levels is? The substance is 147831 (antisense e[5mC]*eT*eG*e[5mC]*e[5mC]*dT*dA*d[5mC]*dT*dG*d[5mC]*dA*dA*dG*dG*e[5mC]*eT*eG*eG*e[5mC]) [compound 147831]
// result 0%

// query Given 147780 (antisense e[5mC]*e[5mC]*eG*e[5mC]*eA*dG*dG*dT*d[5mC]*d[5mC]*d[5mC]*dG*dG*dT*dG*eG*eG*eA*eA*eT) [compound 147780] , state its recorded %INHIB of human apolipoprotein B mRNA levels.
// result 40%

// query State the recorded %INHIB of human apolipoprotein B mRNA levels for this entry: 147809 (antisense e[5mC]*e[5mC]*e[5mC]*eA*eG*dT*dG*dA*dT*dA*dG*d[5mC]*dT*d[5mC]*dT*eG*eT*eG*eA*eG) [compound 147809]
// result 60%

// query So what does the record say about %INHIB of human apolipoprotein B mRNA levels for 147781 (antisense eA*e[5mC]*e[5mC]*eG*eA*dG*dA*dA*dG*dG*dG*d[5mC]*dA*d[5mC]*dT*e[5mC]*eA*eG*e[5mC]*e[5mC]) [compound 147781] ?
// result 35%

More entries:
// query Quick one: %INHIB of human apolipoprotein B mRNA levels of 147829 (antisense eT*eA*eT*eA*eT*d[5mC]*d[5mC]*d[5mC]*dA*dG*dG*dT*dT*dT*d[5mC]*e[5mC]*e[5mC]*e[5mC]*eG*eG) [compound 147829] ?
// result 64%

// query Consider the substance shown here: 147801 (antisense e[5mC]*eA*eG*eA*e[5mC]*d[5mC]*d[5mC]*dG*dA*d[5mC]*dT*d[5mC]*dG*dT*dG*eG*eA*eA*eG*eA) [compound 147801] What is its recorded %INHIB of human apolipoprotein B mRNA levels?
// result 38%

// query Returns the measured %INHIB of human apolipoprotein B mRNA levels for the input substance. Input: 147833 (antisense eA*eT*eG*eA*eT*dA*d[5mC]*dA*d[5mC]*dA*dA*dT*dA*dA*dA*eG*eA*e[5mC]*eT*e[5mC]) [compound 147833]
// result 25%
